assay: Primary qHTS for inhibitors of nuclear receptor binding SET domain protein 2 (NSD2) in an isogenic RCH-ACV NSD2 p.E1099K mutant (9B) (AID 1645876); conditions: RCH-ACV (leukaemia line) NSD2 E1099K (9B) viability, CellTiter-Glo, 72 h; series mostly up to 44.9 µM; note: nearly all actives have a fitted effect of over 70% in size
Results filed as inconclusive are left out. Activity calls are given as the source filed them. Calls come from the whole dose curve; as a rule, active = well fitted inhibition curve with a large enough effect; inconclusive = small, poorly fitted or top-dose-only effect; inactive = flat fitted curve, though single readings scatter. Non-standard residues stand in square brackets, D forms with d. Residues, ends and D or L forms follow the SMILES beside them. *: point of attachment. Nva = CCC[C@H](N)C(=O)O; Cbz = O=C(OCc1ccccc1)*
Outcome (select one): label 1 for active, label 0 for inactive

Consider the following illustrative entries.
molecule	class_name
OC[C@H]1OC(O)C[C@@H](O)[C@H]1O (some centres undefined)	label 0
COC[C@H](NC(=O)c1cnc(C)s1)C(=O)N[C@@H](COC)C(=O)N[C@@H](Cc1ccccc1)C(=O)[C@@]1(C)CO1	label 1
CN(C)CCN1C(=O)c2cccc3cc(N)cc(c23)C1=O	label 1
CC(Oc1ccc(O)cc1)(P(=O)(O)O)P(=O)(O)O	label 0
CCNC(=O)c1cc2c(-c3cc(OCCN4CCCC4)c(Cl)cc3Cl)nc(N)nc2s1	label 1

Prompt: Which outcome was assigned to `Cc1cc(O)c2c(c1)C(=O)c1cccc(O)c1C2=O` in this test?
Response: label 0

Prompt: Which outcome was assigned to `c1ccc2c(Oc3nc(Nc4ccc(N5CCOCC5)cc4)c4ncn(C5CCCCC5)c4n3)cccc2c1` in this test?
Response: label 0

Prompt: Which outcome was assigned to CCC[C@@H](C=O)NC(=O)[C@H](CC(C)C)NC(=O)[C@H](CC(C)C)NC(=O)OCc1ccccc1 (Cbz-Leu-Leu-[Nva]-aldehyde) in this test?
Response: label 1

Prompt: Which outcome was assigned to `CCc1nc(-c2cccc(C)c2)c(-c2ccnc(NC(=O)c3ccccc3)c2)s1` in this test?
Response: label 1

Prompt: Which outcome was assigned to `CCS(=O)(=O)Nc1ccc2[nH]c(O)c(C(=Nc3ccc(CN4CCCCC4)cc3)c3ccccc3)c2c1` in this test?
Response: label 1

Prompt: Which outcome was assigned to `C[C@H](NC(=O)[C@@H](O)c1cc(F)cc(F)c1)C(=O)N[C@@H]1C(=O)N(C)c2ccccc2-c2ccccc21` in this test?
Response: label 0

Prompt: Which outcome was assigned to `CC[C@@]1([C@@H]2O[C@@H]([C@H]3O[C@@](O)(CO)[C@H](C)C[C@H]3C)C[C@H]2C)CC[C@H]([C@]2(C)CC[C@]3(C[C@H](O)[C@@H](C)[C@@H]([C@@H](C)[C@@H](OC)[C@H](C)C(=O)O)O3)O2)O1` in this test?
Response: label 1

Prompt: Which outcome was assigned to `CC(C)[C@H](CO)Nc1nc(Nc2cccc(Cl)c2)c2ncn(C(C)C)c2n1` in this test?
Response: label 1

Prompt: Which outcome was assigned to CC(C)C[C@H](NC(=O)CNC(=O)c1cc(Cl)ccc1Cl)B1OC(=O)CC(CC(=O)O)(C(=O)O)O1 (some centres undefined) in this test?
Response: label 1

Prompt: Which outcome was assigned to `N#Cc1cc(NC(=O)Nc2nnc(-c3ccncc3)s2)ccc1-c1cn[nH]c1` in this test?
Response: label 0

Prompt: Which outcome was assigned to `CC(=O)OC[C@@H]1O[C@@H](n2ccc(=O)[nH]c2=O)[C@H](OC(C)=O)[C@H]1OC(C)=O` in this test?
Response: label 0

Prompt: Which outcome was assigned to `C=CC(=O)N1CCc2ccc(-n3c(=O)ccc4cnc5ccc(-c6cnn(C)c6)cc5c43)cc21` in this test?
Response: label 1

Prompt: Which outcome was assigned to C#CCC(Cc1cnc2nc(N)nc(N)c2n1)c1ccc(C(=O)N[C@@H](CCC(=O)O)C(=O)O)cc1 (some centres undefined) in this test?
Response: label 1

Prompt: Which outcome was assigned to `CCCCC(=O)O[C@]1(C(=O)CO)[C@@H](C)C[C@H]2[C@@H]3CCC4=CC(=O)C=C[C@]4(C)[C@@]3(F)[C@@H](O)C[C@@]21C` in this test?
Response: label 0

###

assay: qHTS of pediatric cancer cell lines to identify multiple opportunities for drug repurposing: Primary screen for A673 cells (AID 1347092); settings: A673 Ewing sarcoma viability, CellTiter-Glo ATP luminescence, 48 h; series mostly up to 46 µM; note: nearly all actives have a fitted effect of over 45% in size
Results filed as inconclusive are left out. The source made the active and inactive calls. The call rests on the fitted dose curve; in most records, active means well fitted cell-killing curve with a large enough effect; inconclusive means small, poorly fitted or top-dose-only effect; inactive means no such curve, though single readings can be large or run the other way.
Outcome (select one): true (1) (active), false (0) (inactive)

compound	class_name
Cc1nc(NC(=O)N2CCC[C@@H]2C(N)=O)sc1-c1ccnc(C(C)(C)C(F)(F)F)c1	true (1)
C=C1CCC2[C@](C)(CO)C(O)CC[C@]2(C)C1CC=C1C(=O)OCC1O (stereo partly specified)	false (0)
O=c1ccn([C@@H]2O[C@H](CO)[C@H](O)[C@@H]2F)c(=O)[nH]1	true (1)
N=c1ccn2c(n1)O[C@H]1[C@@H](O)[C@@H](CO)O[C@H]12	true (1)

Prompt: Which outcome was assigned to `CC[C@H]1OC(=O)[C@H](C)[C@@H](O[C@H]2C[C@@](C)(OC)[C@@H](O)[C@H](C)O2)[C@H](C)[C@@H](O[C@@H]2O[C@H](C)C[C@H](N(C)C)[C@@H]2O)[C@](C)(OC)C[C@@H](C)C(=O)[C@H](C)[C@@H](O)[C@]1(C)O` in this test?
Response: false (0)

Prompt: Which outcome was assigned to `Cc1cnc(Nc2ccc(CN3CCOCC3)cc2)nc1Nc1cccc(S(=O)(=O)NC(C)(C)C)c1` in this test?
Response: true (1)

Prompt: Which outcome was assigned to OC[C@H]1OC(O)C[C@@H](O)[C@H]1O (stereo partly specified) in this test?
Response: false (0)

Prompt: Which outcome was assigned to `OCc1ccccc1O[C@@H]1O[C@H](CO)[C@H](O)[C@H](O)[C@H]1O` in this test?
Response: false (0)

Prompt: Which outcome was assigned to `C[C@@]12C[C@@]3(O)O[C@@H](O1)[C@]1(COC(=O)c4ccccc4)[C@@H]3C[C@@]12O[C@@H]1O[C@H](CO)[C@@H](O)[C@H](O)[C@@H]1O` in this test?
Response: false (0)

Prompt: Which outcome was assigned to `FC(F)c1nc2ccccc2n1-c1nc(N2CCOCC2)nc(N2CCOCC2)n1` in this test?
Response: true (1)

Prompt: Which outcome was assigned to `Cn1cc(C=CC(=O)c2cccc(F)c2)cc1C=CC(=O)NO` in this test?
Response: true (1)

###

assay: Quantitative High-Throughput drug screen in 47 multiple myeloma cell lines against the NCATS MIPE library collection: KMS20_JCRB cell viability assay (AID 1918973); settings: CellTiter-Glo ATP, 48 h; series mostly up to 45.8 µM; note: nearly all actives have a fitted effect of over 45% in size
Records with an inconclusive call do not appear. Active and inactive are the calls of the source. Calls come from the whole dose curve; as a rule, active = well fitted cell-killing curve with a large enough effect; inconclusive = small, poorly fitted or top-dose-only effect, or effect the other way; inactive = no such curve, though single readings can be large or run the other way.
Outcome (select one): true (1) for active, false (0) for inactive

compound	class_name
COc1ccc(C[C@@H](C)[C@@H](C)Cc2ccc(OC)c(OC)c2)cc1OC	true (1)
O=C(Nc1ccc(Oc2ccnc3[nH]ccc23)c(F)c1)c1cccn(-c2ccc(F)cc2)c1=O	false (0)
COc1cc(C=CC(=O)CC(=O)C=Cc2ccc(O)c(OC)c2)ccc1O	true (1)
CC[C@@]1([C@@H]2O[C@@H]([C@H]3O[C@@](O)(CO)[C@H](C)C[C@H]3C)C[C@H]2C)CC[C@H]([C@]2(C)CC[C@]3(C[C@H](O)[C@@H](C)[C@@H]([C@@H](C)[C@@H](OC)[C@H](C)C(=O)O)O3)O2)O1	true (1)
Cc1ncc(-c2ccnc(Nc3ccc(S(C)(=O)=O)cc3)n2)n1C(C)C	true (1)
CN1[C@H]2CC(OC(=O)[C@@H](CO)c3ccccc3)C[C@H]1[C@H]1O[C@H]12 (some centres undefined)	true (1)
C[C@H](NC(=O)[C@@H](O)c1cc(F)cc(F)c1)C(=O)N[C@@H]1C(=O)N(C)c2ccccc2-c2ccccc21	false (0)
Cc1nc(NC(=O)N2CCC[C@@H]2C(N)=O)sc1-c1ccnc(C(C)(C)C(F)(F)F)c1	true (1)

Prompt: Which outcome was assigned to `N#CC(=Cc1ccc(O)c(O)c1)C(=O)NCc1ccccc1` in this test?
Response: true (1)

###

Assay: qHTS assay for measurement of the activity of small molecule inhibitors on Zika virus induced Caspase-3 activity in human iPSC derived neural progenitor cells (hNPCs) (AID 1224857); note: nearly all actives have a fitted effect of over 65% in size
Settings: hNPCs ZIKV-induced caspase-3/7, Caspase-Glo luminescence, 6 h; series mostly up to 45.7 µM
Protocol: National Center for Advancing Translational Sciences [NCATS] Johns Hopkins University School of Medicine […] The medium for hNPCs consists of DMEM/F12, N2 supplement (ThermoFisher, Cat.# 17502048), NEAA (ThermoFisher, Cat. # 11140050), 2 ug/ml heparin, 2 uM cyclopamine, and B27 (ThermoFisher, Cat. # 17504044). […] The luminescence intensity of the assay plates was measured using a ViewLux plate reader (PerkinElmer). […]
Records with an inconclusive call do not appear. Activity calls are given as the source filed them. Calls come from the whole dose curve; as a rule, active = well fitted inhibition curve with a large enough effect; inconclusive = small, poorly fitted or top-dose-only effect; inactive = no such curve, though single readings can be large or run the other way.
Outcome (select one): True for active, False for inactive

Consider the following illustrative entries.
molecule	class_name
CC(C)C[C@H](NC(=O)[C@@H](NC(=O)c1cccc(-c2ccccc2)n1)[C@@H](C)O)B(O)O	False
Cc1ccc(O)c(C(CCN(C(C)C)C(C)C)c2ccccc2)c1 (centres undefined)	False

Prompt: Which outcome was assigned to `Cc1[nH]c(C=C2C(=O)Nc3ccccc32)c(C)c1CCC(=O)O` in this test?
Response: True

Prompt: Which outcome was assigned to `Cc1ccc([N+](=O)[O-])cc1S(=O)(=O)N(C)N=Cc1cnc2ccc(Br)cn12` in this test?
Response: False

Prompt: Which outcome was assigned to `O=C(C=CC#Cc1cccc(NS(=O)(=O)c2ccccc2)c1)NO` in this test?
Response: False

Prompt: Which outcome was assigned to `CON=C(C(=O)N[C@@H]1C(=O)N2C(C(=O)O)=C(Cn3ccc(=N)n3CCO)CS[C@H]12)c1csc(N)n1` in this test?
Response: False

Prompt: Which outcome was assigned to `CC(C)OC(=O)[C@H](C)N[P@](=O)(OC[C@H]1O[C@@H](n2ccc(=O)[nH]c2=O)[C@](C)(F)[C@H]1O)Oc1ccccc1` in this test?
Response: False

Prompt: Which outcome was assigned to `C[C@H](NC(=O)[C@@H](O)c1cc(F)cc(F)c1)C(=O)N[C@@H]1C(=O)N(C)c2ccccc2-c2ccccc21` in this test?
Response: False
